Target: Serine racemase (Mus musculus)
Sequence (Q9QZX7 whole entry): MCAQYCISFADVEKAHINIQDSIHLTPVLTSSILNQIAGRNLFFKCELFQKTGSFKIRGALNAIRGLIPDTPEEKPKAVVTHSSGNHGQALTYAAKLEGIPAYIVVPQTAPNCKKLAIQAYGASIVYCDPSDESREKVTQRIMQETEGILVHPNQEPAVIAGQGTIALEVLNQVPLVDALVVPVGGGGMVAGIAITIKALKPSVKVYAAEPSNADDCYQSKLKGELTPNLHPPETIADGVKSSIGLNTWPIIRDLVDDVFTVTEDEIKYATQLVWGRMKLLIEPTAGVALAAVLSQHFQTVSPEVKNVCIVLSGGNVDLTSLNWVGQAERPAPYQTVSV
Test: Inhibition of mouse recombinant serine racemase expressed in Escherichia coli MC1061 assessed as formation of D-serine after 30 mins by Linewaver-burk and Eadie-Hofstee plot analysis
reported_endpoint: pKi
Kindly note that pKi refers to -log10 of the concentration in mol/L and answer with the value alone.

Consider O=C(CC(=O)NO)NO [MALONODIHYDROXAMIC ACID] . Its measured pKi is 3.38

====

Target: UniProtKB Q9QZX7
Sequence (Q9QZX7 whole entry): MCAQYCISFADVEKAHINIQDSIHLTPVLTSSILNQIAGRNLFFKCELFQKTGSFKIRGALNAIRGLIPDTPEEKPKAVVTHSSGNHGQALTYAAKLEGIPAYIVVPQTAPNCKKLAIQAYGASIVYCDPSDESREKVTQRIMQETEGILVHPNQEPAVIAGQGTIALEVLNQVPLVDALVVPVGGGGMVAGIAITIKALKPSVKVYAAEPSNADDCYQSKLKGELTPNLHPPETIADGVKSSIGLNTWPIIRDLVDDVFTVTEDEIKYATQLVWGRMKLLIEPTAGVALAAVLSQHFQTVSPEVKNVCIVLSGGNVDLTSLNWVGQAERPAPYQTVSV
Assay: Inhibition of mouse recombinant serine racemase expressed in Escherichia coli MC1061 assessed as formation of D-serine after 30 mins by HPLC analysis
Below, each of the compounds is paired with its reported pIC50 value.
The value called pIC50 is obtained by taking minus log10 of the concentration in mol/L.

[
  {
    "compound": "O=C(CCC(=O)NO)NO [SUCCINODIHYDROXAMIC ACID]",
    "reported_endpoint": "pIC50",
    "val": 4.05
  },
  {
    "compound": "O=C(CCCC(=O)NO)NO [GLUTARODIHYDROXAMIC ACID]",
    "reported_endpoint": "pIC50",
    "val": 3.77
  },
  {
    "compound": "N[C@@H](CC(=O)NO)C(=O)O",
    "reported_endpoint": "pIC50",
    "val": 2.89
  }
]

Now for another entry.
Lab note: measured pIC50 of O=C(CC(=O)NO)NO [MALONODIHYDROXAMIC ACID] was 3.43

====

Experiment: Binding affinity to pyridoxal-5'-phosphate assessed as formation of PLP-aldoxime by ESI-MS analysis
Calls of active or inactive are those of the source. The rule behind the calls is not given here.
One label from this list, please: active, inactive

Reference set (6 entries):
[
  {
    "molecule": "O=C(CCCC(=O)NO)NO [GLUTARODIHYDROXAMIC ACID]",
    "class": "active"
  },
  {
    "molecule": "O=C(CC(=O)NO)NO [MALONODIHYDROXAMIC ACID]",
    "class": "active"
  },
  {
    "molecule": "O=C(CCCCC(=O)NO)NO",
    "class": "inactive"
  },
  {
    "molecule": "O=C(CCCCCCC(=O)NO)NO [SUBEROHYDROXAMIC ACID]",
    "class": "inactive"
  },
  {
    "molecule": "O=C(CCC(=O)NO)NO [SUCCINODIHYDROXAMIC ACID]",
    "class": "active"
  },
  {
    "molecule": "CC(=O)NO",
    "class": "inactive"
  }
]

Now look at this entry.
Challenge: Could you kindly confirm the outcome this assay logged for O=C(NO)C(=O)NO ?
Response given: inactive

Every entry's value here was drawn from ChEMBL document CHEMBL1156073.
